System: Miltenberger Antibody Positive Panel
Experiment Notes: Reactivity of modified RBCs against the Miltenberger Antibody Positive Panel
Assay type: cell-based, human
Design: key: 0 or ‘−’ no agglutination; 0 or ‘−’ no agglutination; 1+ or 3=very weak agglutination; 1+ or 3=very weak agglutination; 2+ or 5=weak agglutination; 2+ or 5=weak agglutination; 3+ or 8=moderate strong agglutination; 3+ or 8=moderate strong agglutination; 4+ or 10/12=strong agglutination; 4+ or 10/12=strong agglutination; 4+ or 10/12=strong agglutination
Study Conditions: Table 9; construct 50 μg/ml
No end group written: not given here.
Value Kind: score vs panel 15 TAP2
Field format: numeric only.

Request: Value lookup for score vs panel 15 TAP2; key = M29: DOPE peptide-lipid construct: Mur peptide PAHTANEVS, leader c, spacer CMG(2) (PAHTANEVSC; also: DOPE peptide-lipid construct via leader Cys, spacer CMG(2))
Response: 8

Request: Entry to check: M27: DOPE peptide-lipid construct: Mur peptide TYPAHTAN, leader c, spacer CMG(2) (TYPAHTANC; also: DOPE peptide-lipid construct via leader Cys, spacer CMG(2))
Response: 0

Request: And M28: DOPE peptide-lipid construct: Mur peptide TYPAHTANE, leader c, spacer CMG(2) (TYPAHTANEC; also: DOPE peptide-lipid construct via leader Cys, spacer CMG(2)) ?
Response: 8

Request: For M31: DOPE peptide-lipid construct: Mur peptide YPAHTANEVS, leader c, spacer CMG(2) (YPAHTANEVSC; also: DOPE peptide-lipid construct via leader Cys, spacer CMG(2)) then?
Response: 0

The reported measurements were obtained from patent US10919941B2.
